ASSAYED TARGET: sGC enzyme (Homo sapiens, UniProt Q02108+Q02153)
Construct: host or cells: HEK293 expressing GloSensor 40F cGMP
EXPERIMENTAL DETAILS: cGMP GloSensor cell-based assay, 384-well format (Example 2B)
MEASUREMENT CONTEXT: HEK293 GloSensor 40F cGMP cells, 10 μM DETA-NONOate; 50% of high control response (Compound Y); read-out: sGC_HEK_GloSensor EC50/IC50 Abs (Norm) (nM) Binned
EXPERIMENTAL READOUT: EC50

[[record]]
structure_smiles_string = "COc1cc(-c2ncc3c(n2)NC(=O)C3(C)C)nn1Cc1ccc(F)cc1"
assayed_target = "sGC enzyme (Homo sapiens, UniProt Q02108+Q02153)"
reported_value = "100 to 1000 nM"

[[record]]
structure_smiles_string = "Cc1cn(-c2nc(N)c3c(n2)NC(=O)C3(C)C)nc1Cc1ccccc1F"
assayed_target = "sGC enzyme (Homo sapiens, UniProt Q02108+Q02153)"
reported_value = "< 100 nM"


Now consider a different compound.
QUERY: Fill blank: measured EC50 of the compound CC1(C)C(=O)Nc2nc(-c3ccn(Cc4ccccc4F)n3)nc(O)c21 is ____.
RESULT: > 1000 nM

* * *

Reported EC50 values for a set of compounds
ASSAYED TARGET: soluble guanylate cyclase (sGC) (Homo sapiens, UniProt Q02108+Q02153)
Construct: endogenously expressing soluble guanylate cyclase (sGC); endogenous in cells; host or cells: HEK293
Sequence (Q02108 1-690): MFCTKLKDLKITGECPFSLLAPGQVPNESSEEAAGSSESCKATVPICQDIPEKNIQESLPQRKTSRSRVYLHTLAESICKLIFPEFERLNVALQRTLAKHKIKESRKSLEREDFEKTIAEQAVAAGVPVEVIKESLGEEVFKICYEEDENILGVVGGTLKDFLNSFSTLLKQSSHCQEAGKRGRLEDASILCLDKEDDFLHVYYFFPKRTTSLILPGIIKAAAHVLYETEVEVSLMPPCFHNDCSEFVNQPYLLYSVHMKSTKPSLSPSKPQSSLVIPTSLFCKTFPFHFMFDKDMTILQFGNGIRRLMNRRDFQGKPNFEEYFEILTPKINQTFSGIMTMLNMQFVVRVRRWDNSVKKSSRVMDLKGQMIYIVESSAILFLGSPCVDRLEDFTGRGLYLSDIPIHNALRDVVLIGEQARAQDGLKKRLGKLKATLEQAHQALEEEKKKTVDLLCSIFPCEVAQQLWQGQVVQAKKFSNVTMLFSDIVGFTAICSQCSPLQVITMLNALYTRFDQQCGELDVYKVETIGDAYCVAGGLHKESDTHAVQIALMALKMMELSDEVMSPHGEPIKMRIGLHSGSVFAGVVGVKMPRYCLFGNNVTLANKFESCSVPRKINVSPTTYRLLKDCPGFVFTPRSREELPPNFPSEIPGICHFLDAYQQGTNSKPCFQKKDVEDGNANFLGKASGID
Sequence (Q02153 1-619): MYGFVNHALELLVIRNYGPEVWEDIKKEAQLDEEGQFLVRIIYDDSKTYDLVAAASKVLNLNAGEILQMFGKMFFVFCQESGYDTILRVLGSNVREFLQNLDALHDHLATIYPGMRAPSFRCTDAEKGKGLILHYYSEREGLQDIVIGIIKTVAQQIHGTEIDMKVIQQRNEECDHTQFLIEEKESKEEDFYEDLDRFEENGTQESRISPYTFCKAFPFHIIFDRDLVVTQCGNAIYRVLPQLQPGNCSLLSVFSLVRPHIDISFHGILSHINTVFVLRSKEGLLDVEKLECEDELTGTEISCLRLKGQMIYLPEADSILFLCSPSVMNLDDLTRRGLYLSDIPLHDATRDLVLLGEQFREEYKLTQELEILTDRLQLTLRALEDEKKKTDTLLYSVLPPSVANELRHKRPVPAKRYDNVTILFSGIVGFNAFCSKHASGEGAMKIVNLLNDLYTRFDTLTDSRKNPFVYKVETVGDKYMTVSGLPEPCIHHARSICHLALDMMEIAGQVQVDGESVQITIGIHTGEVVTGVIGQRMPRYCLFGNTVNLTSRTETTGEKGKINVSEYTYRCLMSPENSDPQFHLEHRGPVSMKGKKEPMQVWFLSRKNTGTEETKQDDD
EXPERIMENTAL DETAILS: sGC-HEK-cGMP assay with LC/MS detection (Example 2A)
Format: cell-based
MEASUREMENT CONTEXT: HEK293 cells, 10 μM DETA-NONOate, 20 min; concentration eliciting 50% of high control response (30 μM Compound Y); read-out: Absolute EC50 (nM) - binned

[[record]]
compound = "CCOC(=O)C1(C)C(=O)Nc2nc(-c3cc(COC)n(Cc4ccccc4F)n3)nc(N)c21 (stereo not drawn) [Compound I-21]"
reported_value = "> 1000 nM"


QUERY: Could you share what EC50 was measured for CC1(C)C(=O)N(CCO)c2nc(-c3cc(-c4ccon4)n(Cc4ccccc4F)n3)nnc21 [Compound I-4] , tested on soluble guanylate cyclase (sGC) (Homo sapiens, UniProt Q02108+Q02153)?
RESULT: > 1000 nM

* * *

Measured EC50, listed per entry for reference.
ASSAYED TARGET: sGC enzyme (Homo sapiens, UniProt Q02108+Q02153)
Construct: host or cells: HEK293 expressing GloSensor 40F cGMP
Sequence (Q02108 1-690): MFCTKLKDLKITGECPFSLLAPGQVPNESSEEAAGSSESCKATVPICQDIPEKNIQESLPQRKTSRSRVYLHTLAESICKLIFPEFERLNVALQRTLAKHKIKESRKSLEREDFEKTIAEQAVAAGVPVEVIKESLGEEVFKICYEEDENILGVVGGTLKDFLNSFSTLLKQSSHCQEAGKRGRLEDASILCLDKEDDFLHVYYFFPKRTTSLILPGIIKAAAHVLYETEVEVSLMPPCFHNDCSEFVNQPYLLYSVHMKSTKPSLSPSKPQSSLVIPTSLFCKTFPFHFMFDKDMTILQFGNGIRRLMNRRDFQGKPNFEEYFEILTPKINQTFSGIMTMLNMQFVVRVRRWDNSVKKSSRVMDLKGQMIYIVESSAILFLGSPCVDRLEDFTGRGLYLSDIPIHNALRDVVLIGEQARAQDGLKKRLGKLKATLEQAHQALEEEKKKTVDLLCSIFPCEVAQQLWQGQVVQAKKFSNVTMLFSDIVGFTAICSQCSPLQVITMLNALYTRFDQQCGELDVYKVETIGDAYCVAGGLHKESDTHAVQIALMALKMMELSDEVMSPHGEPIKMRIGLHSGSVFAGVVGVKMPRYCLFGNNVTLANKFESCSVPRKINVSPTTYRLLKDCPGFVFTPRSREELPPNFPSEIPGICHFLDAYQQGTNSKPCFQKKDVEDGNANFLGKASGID
Sequence (Q02153 1-619): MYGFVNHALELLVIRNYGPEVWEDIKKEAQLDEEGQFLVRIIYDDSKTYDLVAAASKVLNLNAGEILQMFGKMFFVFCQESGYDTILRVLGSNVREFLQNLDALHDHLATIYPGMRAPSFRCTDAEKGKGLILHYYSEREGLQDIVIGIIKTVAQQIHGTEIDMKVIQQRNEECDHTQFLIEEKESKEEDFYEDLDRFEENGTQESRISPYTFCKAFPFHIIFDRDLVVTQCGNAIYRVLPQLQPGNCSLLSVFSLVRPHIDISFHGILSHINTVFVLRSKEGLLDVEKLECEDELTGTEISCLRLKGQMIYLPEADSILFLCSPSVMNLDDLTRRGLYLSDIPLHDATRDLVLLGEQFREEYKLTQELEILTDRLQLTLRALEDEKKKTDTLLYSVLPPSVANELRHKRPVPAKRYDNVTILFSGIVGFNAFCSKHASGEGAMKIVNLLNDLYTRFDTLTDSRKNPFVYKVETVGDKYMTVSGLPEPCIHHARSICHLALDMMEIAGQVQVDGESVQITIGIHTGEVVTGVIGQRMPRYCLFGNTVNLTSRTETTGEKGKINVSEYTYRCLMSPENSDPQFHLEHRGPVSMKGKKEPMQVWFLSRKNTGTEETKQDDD
EXPERIMENTAL DETAILS: cGMP GloSensor cell-based assay, 384-well format (Example 2B)
MEASUREMENT CONTEXT: HEK293 GloSensor 40F cGMP cells, 10 μM DETA-NONOate; 50% of high control response (Compound Y); read-out: sGC_HEK_GloSensor EC50/IC50 Abs (Norm) (nM) Binned

# annotated cases, reported EC50 shown
[[record]]
compound = "COc1cn(-c2nc(N)c3c(n2)NC(=O)C3(C)C)nc1Cc1ccccc1F [Compound I-82]"
reported_value = "< 100 nM"

[[record]]
compound = "COc1ccc(CN2C(=O)C(C)(C)c3nnc(-n4cc(OC)c(Cc5ccccc5F)n4)nc32)cc1 [Compound I-91]"
reported_value = "> 30000 nM"


QUERY: Find the recorded EC50 belonging to COc1nc(-c2ccn(Cc3ccccc3F)n2)nc2c1C(C)(C)C(=O)N2 [Compound I-78] and report it.
RESULT: > 1000 nM

QUERY: For the compound COc1c(C)c(-c2nc(N)c3c(n2)NC(=O)C3(C)C)nn1Cc1ccccc1F [Compound I-41] , what EC50 is on record?
RESULT: 100 to 1000 nM

QUERY: # query: EC50 of entry COc1cn(-c2nnc3c(n2)NC(=O)C3(C)C)nc1Cc1ccccc1F [Compound I-67]
RESULT: 100 to 1000 nM
